Data origin: PubChem BioAssay (NCI)

- System: UACC-257 melanoma
property label: GI50

Here are 3 compounds together with their reported answers.
>  <compound>
COc1ccc(-c2cn3ccnc3c(-c3ccc4ncn(C5CCCCC5)c4c3)n2)cc1

>  <target>
UACC-257 melanoma

>  <GI50>
> 100000 nM

$$$$
>  <compound>
CCOC(=O)/C=C/c1ccc(C(=O)OCC)[nH]1

>  <target>
UACC-257 melanoma

>  <GI50>
11300 nM

$$$$
>  <compound>
[Cl][Sn]([c]1ccccc1)[c]1ccccc1

>  <target>
UACC-257 melanoma

>  <GI50>
8250 nM

$$$$

Query: State recorded GI50 with UACC-257 melanoma, entry `NC(N)=N/N=C/c1c(-c2cc(Cl)sc2Cl)nc2n1CCS2` , no comment.
Reply: 9000 nM

Query: Answer briefly: GI50 recorded on UACC-257 melanoma for `Cc1ccc(-c2cc3nc(-c4ccccc4)nc(C(Cl)Cl)n3n2)cc1`
Reply: 1530 nM

Query: Print UACC-257 melanoma GI50 for `O=C1NC(=O)C(c2ccccc2Cl)=C1Nc1cccc(O)c1` .
Reply: > 25000 nM

Query: Determine reported GI50 for `Cn1nnnc1[N-]Cc1ccccc1.[Au+].c1ccc([PH+](c2ccccc2)c2ccccc2)cc1` ; test system: UACC-257 melanoma.
Reply: 2010 nM

Query: Provide GI50, tested on UACC-257 melanoma, for `O=[N+]([O-])/C=C\c1ccc2c(c1)OCO2` .
Reply: 1640 nM

Query: Report the value of GI50 obtained on UACC-257 melanoma for COC1C(O)=C2C(=O)OC(C)(O)/C=C/C=C\C=C/C=C/C(c3ccccc3)NC(=O)/C=C/C=C/C=C/C=C/C2(C)C1O (stereo not given) .
Reply: 83.8 nM

Query: Recall the reported GI50 of `COc1cccc2c(=O)c3c(sc12)c(NCCCN)nc1ccccc13` when tested on UACC-257 melanoma.
Reply: 2000 nM

----------
- System: SF-539 CNS
- measurement protocol: NCI tumour cell line growth inhibition, 48 h
property label: TGI (µM)
Unit µM implied. Number only.

>  <compound>
C=C1CCCCCCCCCCC1S(=O)c1ccccc1 (centres undefined)

>  <property label>
TGI

>  <unit of measurement>
µM

>  <endpoint result>
37.2

$$$$
>  <compound>
COc1cc(C(C#N)NNC(=O)c2ccccc2O)ccc1O (centres undefined)

>  <property label>
TGI

>  <unit of measurement>
µM

>  <endpoint result>
8.73

$$$$
>  <compound>
Cn1nnnc1[N-]Cc1ccccc1.[Au+].c1ccc([PH+](c2ccccc2)c2ccccc2)cc1

>  <property label>
TGI

>  <unit of measurement>
µM

>  <endpoint result>
23.2

$$$$
>  <compound>
OCC1OC(N2C=C(c3nc4ccccc4s3)C3C=CC=CC32)C(O)C1O (centres undefined)

>  <property label>
TGI

>  <unit of measurement>
µM

>  <endpoint result>
17.8

$$$$
>  <compound>
COc1ccc(N=Cc2ccc(N(CCC#N)CCC#N)cc2)cc1

>  <property label>
TGI

>  <unit of measurement>
µM

>  <endpoint result>
78.7

$$$$
>  <compound>
O=C1CSC2(CCN(CCCN3c4ccccc4Sc4ccc(Cl)cc43)CC2)N1

>  <property label>
TGI

>  <unit of measurement>
µM

>  <endpoint result>
26.4

$$$$

Query: Please report the measured TGI for `O=C(/C=C/c1ccc([N+](=O)[O-])o1)NNC(=O)c1cc2ccccc2cc1O`
Reply: 7.52
